# assay-method-text: The drug is tested on Z-010 corresponding to metagenome with ENA study accession number: PRJEB37062 and ENA sample accession number: ERS12561810 for biotransformation under anaerobic condition. The drug concentrations were measured over 9 timepoints collected between 0 and 24 hours of incubation by liquid-chromatography-coupled mass spectrometry (LC–MS); note: call rule not given here
# experimental-context: 2 µM
measure-name: Bacterial Biotransformation

Consider the worked cases shown below.
molecule	Bacterial Biotransformation
CCCc1nn(C)c2c(=O)[nH]c(-c3cc(S(=O)(=O)N4CCN(C)CC4)ccc3OCC)nc12.O=C(O)CC(O)(CC(=O)O)C(=O)O [SILDENAFIL CITRATE]	Compound NOT metabolized
CCOc1ccc(NC(C)=O)cc1	Compound NOT metabolized
CC(C(=O)O)c1ccc2c(c1)Cc1cccnc1O2 (configuration not stated)	Compound metabolized
C[C@@H]1C[C@H]2[C@@H]3CCC4=CC(=O)C=C[C@]4(C)[C@@]3(F)[C@@H](O)C[C@]2(C)[C@@]1(O)C(=O)CO	Compound NOT metabolized
O=P(O)(O)O.c1ccc(CN(CC2=NCCN2)c2ccccc2)cc1 [ANTAZOLINE PHOSPHATE]	Compound metabolized
CN/C(=N/CCSCc1nc[nH]c1C)NC#N	Compound metabolized
O=C(Nc1ccccc1)OCC(CN1CCCCC1)OC(=O)Nc1ccccc1 (configuration not stated)	Compound metabolized
COc1ccccc1OCC(O)CN1CCN(CC(=O)Nc2c(C)cccc2C)CC1 (configuration not stated)	Compound NOT metabolized

Next molecule, please.
Briefly, Bacterial Biotransformation measured for "CCCc1nc(C(C)(C)O)c(C(=O)OCc2oc(=O)oc2C)n1Cc1ccc(-c2ccccc2-c2nnn[nH]2)cc1" : Compound metabolized
